# Tested on: primary mouse hepatocytes
# assay: Gene expression (Affymetrix Mouse Genome 430 2.0) in primary mouse hepatocytes, true vs false GTX, 24 h and 48 h
# experimental_setup: 24 h average; log2, corrected for vehicle control
Note to self: Gene expression data BB526605 (Mipol1) under 0.1 means true, ties and anything higher get false.

Ask: is_below(Gene expression data BB526605 (Mipol1), 0.1) for c1ccc2c(c1)cc1ccc3cccc4ccc2c1c34 [BaP, Benzo(a)pyrene] ?
Reply: true

Ask: is_below(Gene expression data BB526605 (Mipol1), 0.1) for Nc1ccccc1C(=O)O [ANAC, o-Anthranilic acid] ?
Reply: false

Ask: is_below(Gene expression data BB526605 (Mipol1), 0.1) for O=c1c(O)c(-c2ccc(O)c(O)c2)oc2cc(O)cc(O)c12 [Q, Quercetin] ?
Reply: true

Ask: is_below(Gene expression data BB526605 (Mipol1), 0.1) for CN(C)N=O [DMN, Dimethylnitrosamine] ?
Reply: true

Ask: is_below(Gene expression data BB526605 (Mipol1), 0.1) for Nc1ccc([N+](=O)[O-])cc1N [4-NP, 4-Nitro-o-phenylenediamine] ?
Reply: false

Ask: is_below(Gene expression data BB526605 (Mipol1), 0.1) for CC(=O)Nc1ccc2c(c1)Cc1ccccc1-2 [2-AAF, 2-Acetylaminofluorene] ?
Reply: false

----------
# System: primary mouse hepatocytes
# assay: Gene expression (Affymetrix Mouse Genome 430 2.0) in primary mouse hepatocytes, true vs false GTX, 24 h and 48 h
# experimental_setup: 48 h; log2, corrected for vehicle control
measurement_type: Gene expression BM200015 average
Format: numeric value only, no unit, no commentary.

Per the records, this compound ( O=c1c(O)c(-c2ccc(O)c(O)c2)oc2cc(O)cc(O)c12 ) has Gene expression BM200015 average equal to −0.2469

Per the records, this compound ( Nc1ccccc1C(=O)O ) has Gene expression BM200015 average equal to 0.009533

Per the records, this compound ( CC(=O)Nc1ccc2c(c1)Cc1ccccc1-2 ) has Gene expression BM200015 average equal to 0.5127

Per the records, this compound ( CN(C)N=O ) has Gene expression BM200015 average equal to 1.16

Per the records, this compound ( c1ccc2c(c1)cc1ccc3cccc4ccc2c1c34 ) has Gene expression BM200015 average equal to 1.0174

Per the records, this compound ( Nc1ccc([N+](=O)[O-])cc1N ) has Gene expression BM200015 average equal to −0.4429

----------
Kindly state Gene expression AV141095 average for each of the entries shown.
# System: primary mouse hepatocytes
# assay: Gene expression (Affymetrix Mouse Genome 430 2.0) in primary mouse hepatocytes, true vs false GTX, 24 h and 48 h
# experimental_setup: 48 h; log2, corrected for vehicle control
Format: numeric value only, no unit, no commentary.

Value sought: Gene expression AV141095 average, system primary mouse hepatocytes, item Nc1ccc([N+](=O)[O-])cc1N . Result: −0.1051

Value sought: Gene expression AV141095 average, system primary mouse hepatocytes, item CN(C)N=O . Result: −0.8663

Value sought: Gene expression AV141095 average, system primary mouse hepatocytes, item O=c1c(O)c(-c2ccc(O)c(O)c2)oc2cc(O)cc(O)c12 . Result: −0.03573

Value sought: Gene expression AV141095 average, system primary mouse hepatocytes, item CC(=O)Nc1ccc2c(c1)Cc1ccccc1-2 . Result: −0.5829

Value sought: Gene expression AV141095 average, system primary mouse hepatocytes, item c1ccc2c(c1)cc1ccc3cccc4ccc2c1c34 . Result: −1.4056

Value sought: Gene expression AV141095 average, system primary mouse hepatocytes, item Nc1ccccc1C(=O)O . Result: −0.0311
